Exercise: state measured logP (pH 2) for each of the compounds provided.
TEST NAME: logP determination by HPLC on reversed-phase column (EEC Directive 79/831 Annex V.A8)
Format: physicochemical
CONDITION DETAILS: pH 2.3
Reply with just the number.

Value lookup for logP (pH 2); key = NC(=O)c1cnn(C2CNN=C2c2ccc(Cl)cc2)c1 (stereo not drawn)
1.28

Next entry: CNC(=O)c1cnn(C2CNN=C2c2ccc(Cl)cc2)c1 (stereo not drawn)
1.38

Next entry: N#Cc1cnn(C2CNN=C2c2ccc(Br)cc2)c1 (stereo not drawn)
2.20

Next entry: NC(=O)c1cnn(CC(=O)c2ccc(Cl)cc2)c1
1.33

Next entry: N#CCNc1ccc(SC(F)(F)F)cc1
2.82

Next entry: N#Cc1cnn(CC(=O)c2ccc(I)cc2)c1
2.47

Next entry: COC(=O)c1cnn(CC(=O)c2ccc(Cl)cc2)c1
2.20

Next entry: CN(C)C(=O)c1cnn(C2CNN=C2c2ccc(Cl)cc2)c1 (stereo not drawn)
1.54

Next entry: CNC(=O)c1cnn(CC(=O)c2ccc(Cl)cc2)c1
1.44

Next entry: N#Cc1cnn(CC(=O)c2ccc(SC(F)(F)F)cc2)c1
2.91

Next entry: COC(=O)c1cnn(C2CNN=C2c2ccc(Cl)cc2)c1 (stereo not drawn)
2.13

Next entry: N#Cc1cnn(CC(=O)c2ccc(Br)cc2)c1
2.31

Next entry: N#Cc1cnn(C2CNN=C2c2ccc(I)cc2)c1 (stereo not drawn)
2.33

Next entry: N#CCNc1ccc(C(F)(F)F)cc1
2.36

Next entry: N#Cc1cnn(C2CNN=C2c2ccc(SC(F)(F)F)cc2)c1 (stereo not drawn)
2.78

----------
TEST NAME: logP determination by HPLC on reversed-phase column (EEC Directive 79/831 Annex V.A8)
Type: physicochemical
CONDITION DETAILS: reversed-phase C18 HPLC column; values in the text of the Preparation Examples; HPLC, acidic range pH 2.3, 43° C.; read-out: logP (pH 2)
Description: The logP values given in the Preparation Examples and Tables above are determined in accordance with EEC Directive 79/831 Annex V.A8 by HPLC (High Performance Liquid Chromatography) using a reversed-phase column (C 18). Temperature: 43° C. The determination in the acidic range is carried out at pH 2.3 using the mobile phases 0.1% aqueous phosphoric acid and acetonitrile; linear gradient from 10% acetonitrile to 90% acetonitrile. […]
RESULT TYPE: chromatographic logP
Reply with just the number.

Value lookup for chromatographic logP; key = N#CCNc1ccc(OC(F)(F)F)cc1 [XII-1, N-cyanomethyl-4-trifluoromethoxyaniline]
2.49

Next entry: N#Cc1cnn(C2CN(C(=O)Nc3ccc(Cl)cc3)N=C2c2ccc(Cl)cc2)c1 (centres unmarked) [Example 1]
3.64

Next entry: N#CCN(C(=O)N1CC(n2cc(C#N)cn2)C(c2ccc(Cl)cc2)=N1)c1ccc(OC(F)(F)F)cc1 (centres unmarked) [Example 2]
3.68

Next entry: O=C(O)c1cnn(CC(=O)c2ccc(Cl)cc2)c1
1.67

Next entry: CN(C)C(=O)c1cnn(CC(=O)c2ccc(Cl)cc2)c1 [VI-2]
1.62

----------
TEST NAME: logP determination by HPLC on reversed-phase column (EEC Directive 79/831 Annex V.A8)
Assay type: physicochemical
CONDITION DETAILS: pH 2.3
If the reported logP (pH 2)/m.p. equals or exceeds 4, assign 1. If not, assign 0.

Given N#Cc1ccc(NC(=O)N2CC(n3cc(C#N)cn3)C(c3ccc(Cl)cc3)=N2)cc1 (stereo not shown) , state whether its logP (pH 2)/m.p. is at least 4.
0

Next entry: N#Cc1cnn(C2CN(C(=O)Nc3ccc(SC(F)(F)F)cc3)N=C2c2ccc(SC(F)(F)F)cc2)c1 (stereo not shown)
1

Next entry: N#CCN(C(=O)N1CC(n2cc(C#N)cn2)C(c2ccc(Cl)cc2)=N1)c1ccc(C(F)(F)F)cc1 (stereo not shown)
0

Next entry: N#Cc1cnn(C2CN(C(=O)Nc3ccc(OC(F)(F)F)cc3)N=C2c2ccc(I)cc2)c1 (stereo not shown)
1

Next entry: N#Cc1cnn(C2CN(C(=O)Nc3ccc(S(=O)(=O)C(F)(F)F)cc3)N=C2c2ccc(Cl)cc2)c1 (stereo not shown)
0

----------
TEST NAME: logP determination by HPLC on reversed-phase column (EEC Directive 79/831 Annex V.A8)
Format: physicochemical
CONDITION DETAILS: pH 2.3
If the reported logP (pH 2)/m.p. equals or exceeds 4, assign class 1. If not, assign class 0.

Given CN(C)C(=O)c1cnn(C2CN(C(=O)Nc3ccc(S(=O)(=O)C(F)(F)F)cc3)N=C2c2ccc(Cl)cc2)c1 (stereo not shown) , state whether its logP (pH 2)/m.p. is at least 4.
class 0

Next entry: N#Cc1cnn(C2CN(C(=O)Nc3ccc([S+]([O-])C(F)(F)F)cc3)N=C2c2ccc(Cl)cc2)c1 (stereo not shown)
class 0

Next entry: NC(=O)c1cnn(C2CN(C(=O)Nc3ccc(SC(F)(F)F)cc3)N=C2c2ccc(Cl)cc2)c1 (stereo not shown)
class 0

Next entry: N#Cc1cnn(C2CN(C(=O)Nc3ccc(SC(F)(F)F)cc3)N=C2c2ccc(Cl)cc2)c1 (stereo not shown)
class 1

----------
TEST NAME: logP determination by HPLC on reversed-phase column (EEC Directive 79/831 Annex V.A8)
Type: physicochemical
CONDITION DETAILS: pH 2.3
Exercise: state measured logP (pH 2)/m.p. for each of the compounds provided.
Reply with just the number.

Value lookup for logP (pH 2)/m.p.; key = N#CCN(C(=O)N1CC(n2cc(C#N)cn2)C(c2ccc(Br)cc2)=N1)c1ccc(C(F)(F)F)cc1 (centres unmarked) [Example 35]
3.63

Next entry: CNC(=O)c1cnn(C2CN(C(=O)Nc3ccc(SC(F)(F)F)cc3)N=C2c2ccc(Cl)cc2)c1 (centres unmarked) [Example 21]
3.39

Next entry: N#CCN(C(=O)N1CC(n2cc(C#N)cn2)C(c2ccc(Br)cc2)=N1)c1ccc(OC(F)(F)F)cc1 (centres unmarked) [Example 33]
3.75

Next entry: N#Cc1cnn(C2CN(C(=O)Nc3ccc(Br)cc3)N=C2c2ccc(Cl)cc2)c1 (centres unmarked) [Example 28]
3.73

Next entry: N#Cc1cnn(C2CN(C(=O)Nc3ccc(S(=O)(=O)C(F)(F)F)cc3)N=C2c2ccc(Br)cc2)c1 (centres unmarked) [Example 11]
3.88

----------
TEST NAME: logP determination by HPLC on reversed-phase column (EEC Directive 79/831 Annex V.A8)
Type: physicochemical
CONDITION DETAILS: pH 2.3
RESULT TYPE: logP (pH 2)/m.p.

Value lookup for logP (pH 2)/m.p.; key = N#CCN(C(=O)N1CC(n2cc(C#N)cn2)C(c2ccc(Cl)cc2)=N1)c1ccc(Cl)cc1 (centres unmarked)
3.42

Next entry: CNC(=O)c1cnn(C2CN(C(=O)Nc3ccc(OC(F)(F)F)cc3)N=C2c2ccc(Cl)cc2)c1 (centres unmarked)
3.07

Next entry: N#Cc1cnn(C2CN(C(=O)Nc3ccc(SC(F)(F)F)cc3)N=C2c2ccc(I)cc2)c1 (centres unmarked)
4.48

Next entry: COC(=O)N(C(=O)N1CC(n2cc(C#N)cn2)C(c2ccc(Cl)cc2)=N1)c1ccc(OC(F)(F)F)cc1 (centres unmarked)
3.82

Next entry: NC(=O)c1cnn(C2CN(C(=O)Nc3ccc(OC(F)(F)F)cc3)N=C2c2ccc(Cl)cc2)c1 (centres unmarked)
2.94

Next entry: N#Cc1cnn(C2CN(C(=O)Nc3ccc(I)cc3)N=C2c2ccc(Cl)cc2)c1 (centres unmarked)
3.90

Next entry: N#Cc1cnn(C2CN(C(=O)Nc3ccc(OC(F)(F)F)cc3)N=C2c2ccc(SC(F)(F)F)cc2)c1 (centres unmarked)
4.39

Next entry: N#Cc1cnn(C2CN(C(=O)Nc3ccc(C(F)(F)F)cc3)N=C2c2ccc(Cl)cc2)c1 (centres unmarked)
3.86

----------
TEST NAME: logP determination by HPLC on reversed-phase column (EEC Directive 79/831 Annex V.A8)
Type: physicochemical
CONDITION DETAILS: pH 2.3
RESULT TYPE: logP (pH 2)/m.p.
Reply with just the number.

Value lookup for logP (pH 2)/m.p.; key = CCOC(=O)N(C(=O)N1CC(n2cc(C#N)cn2)C(c2ccc(Cl)cc2)=N1)c1ccc(OC(F)(F)F)cc1 (stereo not drawn) [Example 7]
4.06

Next entry: N#CCN(C(=O)N1CC(n2cc(C#N)cn2)C(c2ccc(Cl)cc2)=N1)c1ccc(SC(F)(F)F)cc1 (stereo not drawn) [Example 32]
3.90

Next entry: COC(=O)c1cnn(C2CN(C(=O)Nc3ccc(OC(F)(F)F)cc3)N=C2c2ccc(Cl)cc2)c1 (stereo not drawn) [Example 17]
3.95
